- System: buckwheat, wild (wild buckwheat, Polygonum convolvulus)
- experiment-notes: Test D controlled growth environment herbicide test, pre- and postemergence
- Type: in vivo
- study-conditions: Preemergence, 62 g ai/ha; scale 0 to 100 (0 no effect, 100 complete control)
Quick reference for Plant response rating, Buckwheat, Wild among some compounds
observation-type: Plant response rating, Buckwheat, Wild

>>> print(df.to_string())
                                smiles_code                        observation_type  readout_value
0  CC(=O)Oc1c(C)nn(C)c(=O)c1-c1c(C)sc2c(C)cc(C)cc12  Plant response rating, Buckwheat, Wild             30
1  Cc1ccc2ccc(C)c(-c3c(O)c(C)nn(C)c3=O)c2c1  Plant response rating, Buckwheat, Wild             25
2  CCOC(=O)Oc1c(C)nn(C)c(=O)c1-c1c(C)ccc2ccccc12  Plant response rating, Buckwheat, Wild              0
3       Cc1ccc2ccccc2c1-c1c(O)c(C)nn(C)c1=O  Plant response rating, Buckwheat, Wild             65
4  Cc1cc(C)c2sc(C)c(-c3c(OC(=O)OC(C)C)c(C)nn(C)c3=O)c2c1  Plant response rating, Buckwheat, Wild              0
5  CCC(=O)Oc1c(C)nn(C)c(=O)c1-c1c(C)sc2ccc(C)cc12  Plant response rating, Buckwheat, Wild             25
6    COc1nn(C)c(=O)c(-c2c(C)ccc3ccccc23)c1O  Plant response rating, Buckwheat, Wild              5

---

- Test system: rice (Oryza sativa)
- experiment-notes: Test B flooded paddy test
- Format: in vivo
- study-conditions: Oryza sativa, 360 h; 250 g ai/ha, Flood; visual rating on scale of 0 to 100 where 0 is no effect and 100 is complete control; 13 to 15 d after treatment; read-out: Plant response rating, Rice
observation-type: plant injury at 250 g/ha (%)

In [3]: df
Out[3]:
                                   molecule  unit_text  readout_value
0  Cc1nn(C)c(=O)c(-c2c(C)oc3ccccc23)c1O [Compound 4]          %              0
1  Cc1ccc2oc(C)c(-c3c(O)c(C)nn(C)c3=O)c2c1 [Compound 7]          %              0
2  CCc1sc2cc(C)cc(C)c2c1-c1c(O)c(C)nn(C)c1=O [Compound 19]          %              0
3  CC(=O)Oc1c(C)nn(C)c(=O)c1-c1c(C)oc2c(C)cccc12 [Compound 15]          %              0

---

Quick reference for Plant response rating, Kochia among some compounds
- Tested on: kochia (Kochia scoparia)
- experiment-notes: Test E greenhouse herbicide test, pre- and postemergence
- Assay type: in vivo
- study-conditions: 250 g ai/ha, Postemergence; scale 0 to 100 (0 no effect, 100 complete control)
- From the text: […]
observation-type: Plant response rating, Kochia

In [3]: df
Out[3]:
                                   compound               observation_type  readout_value
0  CC(=O)Oc1c(C)nn(C)c(=O)c1-c1c(C)cc(C)c2ccccc12 [Compound 153]  Plant response rating, Kochia             70
1  CCC(=O)Oc1c(C)nn(C)c(=O)c1-c1c(C)sc2c(C)cc(C)cc12 [Compound 28]  Plant response rating, Kochia             90
2  CC(=O)Oc1c(C)nn(C)c(=O)c1-c1c(C)sc2ccc(C)cc12 [Compound 25]  Plant response rating, Kochia             98
3  COC(=O)Oc1c(C)nn(C)c(=O)c1-c1c(C)sc2c(C)cc(C)cc12 [Compound 81]  Plant response rating, Kochia             75
4  CSCC(=O)Oc1c(C)nn(C)c(=O)c1-c1cccc2ccccc12 [Compound 171]  Plant response rating, Kochia            100

---

Quick reference for Plant response rating, Oilseed Rape among some compounds
- Test system: oilseed rape (Brassica napus)
- experiment-notes: Test C greenhouse herbicide test, pre- and postemergence
- Type: in vivo
- study-conditions: Preemergence, 31 g ai/ha; scale 0 to 100, 0 is no effect, 100 is complete control
observation-type: Plant response rating, Oilseed Rape

>>> print(df.to_string())
                                smiles_code  readout_value
0  C#CCOC(=O)Oc1c(C)nn(C)c(=O)c1-c1c(C)sc2ccc(C)cc12             30
1      Cc1ccc2ccccc2c1-c1c(O)c(Cl)nn(C)c1=O             85
2  Cc1ccc2ccc(C)c(-c3c(O)c(C)nn(C)c3=O)c2c1             30
3  Cc1cc(C)c2ccccc2c1-c1c(OS(C)(=O)=O)c(C)nn(C)c1=O             80
4  CCC(=O)Oc1c(Cl)nn(C)c(=O)c1-c1c(C)sc2ccc(Cl)cc12              0
5  CC(=O)Oc1c(C)nn(C)c(=O)c1-c1ccc(F)c2ccccc12             30

---

- Test system: canarygrass (Phalaris minor)
- experiment-notes: Test D controlled growth environment herbicide test, pre- and postemergence
- Assay type: in vivo
- study-conditions: Preemergence, 31 g ai/ha
Mark each entry Met if its Plant response rating (scale of 0 to 100), Canarygrass sits below 40, and Not met for all others.

                                   molecule                 tested_system  qualitative_label
0  Cc1ccc(-c2c(O)c(Br)nn(C)c2=O)c2ccccc12 [Compound 52]  canarygrass (Phalaris minor)                Met
1  CCC(=O)Oc1c(C)nn(C)c(=O)c1-c1c(C)sc2ccc(Cl)cc12 [Compound 109]  canarygrass (Phalaris minor)                Met
2  COC(=O)Oc1c(C)nn(C)c(=O)c1-c1c(C)sc2c(C)cc(C)cc12 [Compound 81]  canarygrass (Phalaris minor)            Not met
3  CCOC(=O)Oc1c(C)nn(C)c(=O)c1-c1c(C)ccc2ccccc12 [Compound 73]  canarygrass (Phalaris minor)            Not met
4  C#CCOC(=O)Oc1c(C)nn(C)c(=O)c1-c1c(C)sc2ccc(C)cc12 [Compound 87]  canarygrass (Phalaris minor)            Not met
5  CCOC(=O)Oc1c(C)nn(C)c(=O)c1-c1c(C)sc2ccc(C)cc12 [Compound 82]  canarygrass (Phalaris minor)            Not met
6  CC(=O)Oc1c(Br)nn(C)c(=O)c1-c1c(C)ccc2ccccc12 [Compound 129]  canarygrass (Phalaris minor)                Met

---

- Test system: kochia (Kochia scoparia)
- experiment-notes: Test C greenhouse herbicide test, postemergence
- Type: in vivo
- study-conditions: Postemergence, 62 g ai/ha; 0 to 100 scale (0 no effect, 100 complete control)
Mark each entry 1 if its Kochia plant response rating sits below 80, and -1 for all others.

>>> print(df.to_string())
                                smiles_code  qualitative_label
0  COC(=O)Oc1cnn(C)c(=O)c1-c1c(C)ccc2ccccc12                  1
1  Cc1ccc2ccccc2c1-c1c(OC(=O)N2CCOCC2)c(Br)nn(C)c1=O                 -1
2  Cc1cc(C)c2ccccc2c1-c1c(OS(C)(=O)=O)c(C)nn(C)c1=O                  1
3  COc1nn(C)c(=O)c(-c2c(C)ccc3ccccc23)c1OC(C)=O                 -1

---

Quick reference for Plant response rating, Chickweed among some compounds
- System: chickweed (common chickweed, Stellaria media)
- experiment-notes: Test D controlled growth environment herbicide test, pre- and postemergence
- Type: in vivo
- study-conditions: Postemergence, 125 g ai/ha; visual rating on scale 0 (no effect) to 100 (complete control), 14 to 21 d
observation-type: Plant response rating, Chickweed

In [3]: df
Out[3]:
                                smiles_code  readout_value
0  CC(=O)Oc1c(C)nn(C)c(=O)c1-c1ccc(F)c2ccccc12             98
1  Cc1cc(C)c2sc(C)c(-c3c(OC(=O)OCCCl)c(C)nn(C)c3=O)c2c1            100
2  CCC(=O)Oc1c(C)nn(C)c(=O)c1-c1c(C)sc2ccc(C)cc12            100
3  Cc1ccc2ccc(C)c(-c3c(O)c(C)nn(C)c3=O)c2c1            100
4    COc1nn(C)c(=O)c(-c2c(C)ccc3ccccc23)c1O            100
